Tgt: CCR4 (Homo sapiens)
Construct: host or cells: CHO-K1
Experiment Notes: PathHunter eXpress CCR4 CHO-K1 β-Arrestin GPCR Assay, agonist format
Type: cell-based
Measurement Parameters: high concentration, 0.023 uM
Recorded Endpoint: Raw Data
The answer should be written as a number, with no unit following it.

Use the examples below as a reference point.
Sequence Content | Tgt | Assay Value
ACQLTCLPPPRQPGCA [24-15-00-N001, bicyclic peptide ligand, TATA scaffold, from CCR4 cell-based selection] | CCR4 (Homo sapiens) | 12121
ACPLMSSVNCTAGCA [24-13-00-N001, bicyclic peptide ligand, TBMB scaffold, from CCR4 cell-based selection] | CCR4 (Homo sapiens) | 12684

// fetch CCR4 (Homo sapiens) Raw Data for ACQTLCNTAEDIRCA [24-16-00-N001, bicyclic peptide ligand, TBMB scaffold, from CCR4 cell-based selection]
12701

// fetch CCR4 (Homo sapiens) Raw Data for ACLNGCRNTNSQCA [24-11-00-N001, bicyclic peptide ligand, TATA scaffold, from CCR4 cell-based selection]
11338

// fetch CCR4 (Homo sapiens) Raw Data for ACRAVHSLRCLTTCA [24-17-00-N001, bicyclic peptide ligand, TATA scaffold, from CCR4 cell-based selection]
13984

// fetch CCR4 (Homo sapiens) Raw Data for ACQLTCLTPARQPGCA [24-14-00-N001, bicyclic peptide ligand, TATA scaffold, from CCR4 cell-based selection]
12607

// fetch CCR4 (Homo sapiens) Raw Data for ACLSCARHGNQCA [24-12-00-N001, bicyclic peptide ligand, TATA scaffold, from CCR4 cell-based selection]
12540

----------
Tgt: CCR4 (Homo sapiens)
Construct: host or cells: CHO-K1
Sequence (P51679 1-360): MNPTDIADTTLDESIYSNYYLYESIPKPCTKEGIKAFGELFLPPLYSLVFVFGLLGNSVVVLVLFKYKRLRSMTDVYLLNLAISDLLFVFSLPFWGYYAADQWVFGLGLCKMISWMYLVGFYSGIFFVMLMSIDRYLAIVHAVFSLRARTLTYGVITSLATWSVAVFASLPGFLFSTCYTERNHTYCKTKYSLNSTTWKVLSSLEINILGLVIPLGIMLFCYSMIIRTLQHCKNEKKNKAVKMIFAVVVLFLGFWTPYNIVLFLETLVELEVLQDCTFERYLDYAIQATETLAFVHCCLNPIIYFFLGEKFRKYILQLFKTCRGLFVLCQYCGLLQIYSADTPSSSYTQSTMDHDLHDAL
Experiment Notes: PathHunter eXpress CCR4 CHO-K1 β-Arrestin GPCR Assay, antagonist format with CCL22
Assay type: cell-based
Measurement Parameters: 1 nM CCL22, 0.1 uM
Short version: Raw Data at least 200000 is fulfilled, less is not fulfilled.

Example entries begin here.
Sequence Content | Assigned Class
ACQLTCLTPARQPGCA [24-14-00-N001, bicyclic peptide ligand, TATA scaffold, from CCR4 cell-based selection] | fulfilled
ACPLMSSVNCTAGCA [24-13-00-N001, bicyclic peptide ligand, TBMB scaffold, from CCR4 cell-based selection] | fulfilled
ACLSCARHGNQCA [24-12-00-N001, bicyclic peptide ligand, TATA scaffold, from CCR4 cell-based selection] | not fulfilled
ACQLTCLPPPRQPGCA [24-15-00-N001, bicyclic peptide ligand, TATA scaffold, from CCR4 cell-based selection] | fulfilled
ACQTLCNTAEDIRCA [24-16-00-N001, bicyclic peptide ligand, TBMB scaffold, from CCR4 cell-based selection] | fulfilled
ACLNGCRNTNSQCA [24-11-00-N001, bicyclic peptide ligand, TATA scaffold, from CCR4 cell-based selection] | not fulfilled

With those in mind, consider the next sequence.
Hello, I need to know if ACRAVHSLRCLTTCA [24-17-00-N001, bicyclic peptide ligand, TATA scaffold, from CCR4 cell-based selection] has measured Raw Data not below 200000. Thanks!
fulfilled

These measurements were taken from patent US11946041B2.
